B1: Ventral anterior homeobox 1, residues 102 to 157; numbered along this chain, Q5SQQ9 (parent)
chain: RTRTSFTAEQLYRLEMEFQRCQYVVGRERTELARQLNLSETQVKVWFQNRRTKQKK

Variants of: B1
Experiment: abundance fitness (aPCA) (normalised: wild type 0, dead -1); higher = more abundant; growth selection in yeast, the domain comes from the species named
Conditions: Homo sapiens

{"columns": ["variant description", "abundance fitness"],
 "data": [
  ["S39V", -0.488],
  ["Q19L", -0.044],
  ["R13Q", 0.163],
  ["R1E", -0.025],
  ["F6G", -0.427],
  ["V25A", 0.042],
  ["W46G", -0.778],
  ["K44S", 0.106],
  ["E15Q", -1.01],
  ["Q54A", 0.018],
  ["Q42E", 0.183],
  ["N49Q", -0.038],
  ["E9N", -0.733],
  ["M16F", -0.285],
  ["Q48Y", -0.298],
  ["Q48H", -0.505],
  ["W46F", -0.406],
  ["L11P", -0.893],
  ["E9R", -0.455],
  ["A33H", -0.925],
  ["E15G", -0.823],
  ["E9P", -0.669],
  ["R34Y", -0.655],
  ["R27C", -0.026],
  ["R13E", -0.513],
  ["Q35H", -0.167],
  ["L38P", -1.02],
  ["K55P", 0.061],
  ["Q19P", -0.732],
  ["E28L", -0.369],
  ["R34V", -0.074],
  ["A8Y", -0.158],
  ["Q22L", -0.437],
  ["T4C", -0.165],
  ["E9H", -0.509],
  ["L36R", -0.881],
  ["V45I", -0.3],
  ["V25R", -0.16],
  ["Q22T", -0.17],
  ["G26T", -0.453],
  ["R3S", 0.266],
  ["T4L", 0.205],
  ["F6P", -0.337],
  ["E15S", -0.766],
  ["F47D", -0.674],
  ["N49R", -0.26],
  ["G26F", -0.278],
  ["A33L", -0.693],
  ["Q48V", -0.115],
  ["A8S", -0.064],
  ["R50Q", -0.098],
  ["Q48M", -0.122],
  ["Q35V", -0.265],
  ["K56M", -0.17],
  ["M16N", -0.407],
  ["K53R", -0.088],
  ["R50A", -0.163],
  ["A8F", -0.473],
  ["K55I", -0.238],
  ["L11G", -0.254],
  ["Q22Y", -0.641],
  ["Y12F", -0.13],
  ["Q22M", -0.249],
  ["Q42F", -0.266],
  ["Q22F", -0.585],
  ["R20M", -0.001],
  ["E17S", -0.294],
  ["R3W", 0.054]
]}
